Assay: gradient 5% acetonitrile 3 min, to 50% in 2 min, to 85% in 15 min, held 3 min, 100 µL/min
Settings: column: Zorbax Extend-C18 2.1 x 50 mm; eluents: water / acetonitrile, 0.1% formic acid
recordedEndpoint: RP-LC retention time (s)

[[record]]
smi = "Cc1cc(S(=O)(=O)N2CC(F)(F)C[C@H]2CN2CCc3ccccc3C2)ccc1F"
recordedendpoint = "RP-LC retention time"
recordedvalue = 790

[[record]]
smi = "Cc1cc(C(=O)Nc2nc3c(F)cccc3s2)no1"
recordedendpoint = "RP-LC retention time"
recordedvalue = 780

[[record]]
smi = "COc1cc(C)c(C(C)C)cc1S(=O)(=O)Nc1cccc(C)n1"
recordedendpoint = "RP-LC retention time"
recordedvalue = 781


---

Experiment: gradient 5% acetonitrile 3 min, to 50% in 2 min, to 85% in 15 min, held 3 min, 100 µL/min
Conditions: column: Zorbax Extend-C18 2.1 x 50 mm; eluents: water / acetonitrile, 0.1% formic acid
recordedEndpoint: RP-LC retention time (s)

[[record]]
compound = "COc1ccc(-c2cc(N3CCN(C(=O)Nc4ccc(OC)c(OC)c4)CC3)ncn2)cc1"
recordedvalue = 620

[[record]]
compound = "Cc1ccc(CNC(=O)C2CCCN(c3cnn(C)c(=O)c3)C2)cc1 (centres undefined)"
recordedvalue = 715

[[record]]
compound = "Cc1cccc(S(=O)(=O)Nc2ccc(-c3cn4ccc(C)nc4n3)cc2)c1"
recordedvalue = 659

[[record]]
compound = "COc1ccc(-c2ncccc2CNS(=O)(=O)c2c(C)cccc2Cl)cc1"
recordedvalue = 719

[[record]]
compound = "O=C(CN1C(=O)CSc2ccc(C(=O)N3CCCCC3)cc21)NC1CCCCCC1"
recordedvalue = 839

[[record]]
compound = "C[C@H]([C@H](C)N1CC(=O)NC(=O)C1)N1CC(=O)NC(=O)C1"
recordedvalue = 610

[[record]]
compound = "CC(C)NC(=O)c1ccc(OCC2CCN(C(=O)Cc3cccs3)CC2)cc1"
recordedvalue = 822

[[record]]
compound = "COc1ccc(-c2nnc(-c3ccccc3)o2)cc1S(=O)(=O)N1CCC(C(=O)O)CC1"
recordedvalue = 774

[[record]]
compound = "Cc1noc(C2(NC(=O)c3ccccn3)CCCCC2)n1"
recordedvalue = 766

[[record]]
compound = "O=C(CCc1nnc2c3cc(-c4ccc(F)cc4)nn3ccn12)NCCc1cccs1"
recordedvalue = 786

[[record]]
compound = "O=C(NCC1CCN(C(=O)COc2ccccc2)CC1)Nc1cccc(C(F)(F)F)c1"
recordedvalue = 840

[[record]]
compound = "Cc1ccnc(N2CCCC(C(=O)NCCc3ccc(S(N)(=O)=O)cc3)C2)n1 (centres undefined)"
recordedvalue = 604

[[record]]
compound = "COc1ccc2c(c1)C1(CCN(S(=O)(=O)c3ccc(Br)cc3)C1)C(=O)N2 (centres undefined)"
recordedvalue = 881

[[record]]
compound = "O=C(CC1CCCN(c2cnn(CC3CC3)c(=O)c2)C1)N1CCC2(CC1)OCCO2 (centres undefined)"
recordedvalue = 706


---

Test: gradient 5% acetonitrile 3 min, to 50% in 2 min, to 85% in 15 min, held 3 min, 100 µL/min
Settings: column: Zorbax Extend-C18 2.1 x 50 mm; eluents: water / acetonitrile, 0.1% formic acid
recordedEndpoint: RP-LC retention time (s)

[[record]]
compound = "O=C1Nc2ccccc2SC1C(=O)N1CCC(C(=O)N2CCN(c3ccccc3)CC2)CC1 (stereo not drawn)"
recordedendpoint = "RP-LC retention time"
recordedvalue = 766

[[record]]
compound = "CSc1nnc(NC(=O)c2ccccc2[N+](=O)[O-])s1"
recordedendpoint = "RP-LC retention time"
recordedvalue = 672

[[record]]
compound = "CCOC(=O)Nc1nc2c(s1)CN(S(=O)(=O)c1c(C)noc1C)CC2"
recordedendpoint = "RP-LC retention time"
recordedvalue = 747

[[record]]
compound = "CNS(=O)(=O)c1c[nH]c(=O)[nH]c1=O"
recordedendpoint = "RP-LC retention time"
recordedvalue = 624

[[record]]
compound = "CCN1CCN(CCCNc2nnc(-c3nc(C4CC4)no3)c3ccccc23)CC1"
recordedendpoint = "RP-LC retention time"
recordedvalue = 584

[[record]]
compound = "CCCNC(=O)c1n[nH]c2c1CC(C)CC2 (stereo not drawn)"
recordedendpoint = "RP-LC retention time"
recordedvalue = 740

[[record]]
compound = "Cc1ccc(N2C(=O)c3cccnc3C2CC(=O)N2CCN(c3ccccn3)CC2)cc1 (stereo not drawn)"
recordedendpoint = "RP-LC retention time"
recordedvalue = 579

[[record]]
compound = "CCc1nc2c(c(=O)n1CC(=O)Nc1ccccc1)CN(Cc1ccccc1)CC2"
recordedendpoint = "RP-LC retention time"
recordedvalue = 638

[[record]]
compound = "CN(C)c1ccc(NS(=O)(=O)c2c(F)c(F)c(F)c(F)c2F)cc1"
recordedendpoint = "RP-LC retention time"
recordedvalue = 869

[[record]]
compound = "CCOc1ccc(CC(=O)N2CC(C(=O)NC)C3(CCCC3)C2)cc1OCC (stereo not drawn)"
recordedendpoint = "RP-LC retention time"
recordedvalue = 726

[[record]]
compound = "Cc1ccc(NC(=O)N2CC(N(C)Cc3cccnc3)C2)cc1C"
recordedendpoint = "RP-LC retention time"
recordedvalue = 605

[[record]]
compound = "CSc1ccc(CNC(=O)c2cc(-c3ccncc3)cn2C)cc1"
recordedendpoint = "RP-LC retention time"
recordedvalue = 655

[[record]]
compound = "Cc1c(-c2noc(C(=O)NCCCN3CCCCCC3)n2)oc2ccccc12"
recordedendpoint = "RP-LC retention time"
recordedvalue = 692


---

Test: gradient 5% acetonitrile 3 min, to 50% in 2 min, to 85% in 15 min, held 3 min, 100 µL/min
Details: column: Zorbax Extend-C18 2.1 x 50 mm; eluents: water / acetonitrile, 0.1% formic acid
recordedEndpoint: RP-LC retention time (s)

[[record]]
molecule = "COc1ccc(-c2noc(C3CCCN3C(=O)C3CCC3)n2)cc1 (stereo not given)"
recordedendpoint = "RP-LC retention time"
recordedvalue = 899

[[record]]
molecule = "COCc1cnc2c(c1SCc1ccccc1F)c(=O)n(C)c(=O)n2C"
recordedendpoint = "RP-LC retention time"
recordedvalue = 899

[[record]]
molecule = "Cc1cnn(Cc2nc(-c3ccc(NC(=O)C4CCCCC4)cc3)oc2C)c1"
recordedendpoint = "RP-LC retention time"
recordedvalue = 881

[[record]]
molecule = "CCc1ccc(OCc2nc(CCN(C)C(=O)c3cccs3)no2)cc1"
recordedendpoint = "RP-LC retention time"
recordedvalue = 924

[[record]]
molecule = "CCn1cc(C(=O)NCc2ccc(F)cc2)c(S(=O)(=O)N2CCSCC2)n1"
recordedendpoint = "RP-LC retention time"
recordedvalue = 915


---

Assay: gradient 5% acetonitrile 3 min, to 50% in 2 min, to 85% in 15 min, held 3 min, 100 µL/min
Details: column: Zorbax Extend-C18 2.1 x 50 mm; eluents: water / acetonitrile, 0.1% formic acid
recordedEndpoint: RP-LC retention time (s)

(1) CCCn1ccc2sc(C)c(C(=O)N3CCOCC3)c2c1=O
(2) Cc1ccc(-c2nnc(Cc3nc(-c4ccc(F)cc4)no3)o2)cc1F
Input pair: 1 , 2 . Output: entry with lower RP-LC retention time. Pick one; state its label.
1
(1: 646 s, 2: 1100 s)

(A) COc1ccc(-c2c(C)noc2NC(C)=O)cc1S(=O)(=O)Nc1ccc(F)cc1
(B) COc1ccc(-c2nc(COc3cc(C(F)(F)F)c4c(C)nn(C)c4n3)c(C)o2)cc1OC
Two entries are listed, A and B . Which one carries the higher RP-LC retention time? Pick one; state its label.
B
(B: 1190 s, A: 736 s)

(A) COc1ccc2c(c1)c(CN1CCC(C(=O)NCCN3CCCCC3)CC1)cn2C
(B) CCOC(=O)c1nc(NCc2ccc(C)cc2)c2ccccc2n1
Input pair: A , B . Output: entry with lower RP-LC retention time. Pick one; state its label.
A
(A: 562 s, B: 823 s)

---

Test: gradient 5% acetonitrile 3 min, to 50% in 2 min, to 85% in 15 min, held 3 min, 100 µL/min
Conditions: column: Zorbax Extend-C18 2.1 x 50 mm; eluents: water / acetonitrile, 0.1% formic acid
recordedEndpoint: RP-LC retention time (s)

[[record]]
smi = "COC(=O)c1nn(-c2ccc(C)cc2)c2c(=O)n(C)cnc12"
recordedendpoint = "RP-LC retention time"
recordedvalue = 707

[[record]]
smi = "C=Cc1ccc(CSc2nnc3c(S(=O)(=O)N4CCCC4)cccn23)cc1"
recordedendpoint = "RP-LC retention time"
recordedvalue = 884

[[record]]
smi = "N#Cc1ccc(NC(=O)Cn2cc(-c3ccccc3)c3ncn(C4CC4)c(=O)c32)cc1"
recordedendpoint = "RP-LC retention time"
recordedvalue = 885

[[record]]
smi = "Cc1nc(-c2noc(-c3ccc(F)cc3)n2)cn1CC(=O)Nc1cccc(F)c1"
recordedendpoint = "RP-LC retention time"
recordedvalue = 897


---

Test: gradient 5% acetonitrile 3 min, to 50% in 2 min, to 85% in 15 min, held 3 min, 100 µL/min
Settings: column: Zorbax Extend-C18 2.1 x 50 mm; eluents: water / acetonitrile, 0.1% formic acid
recordedEndpoint: RP-LC retention time (s)

[[record]]
smi = "Cc1ccc(CNC(=O)c2ccc(-c3ccsc3)nc2)o1"
u = "s"
recordedvalue = 824

[[record]]
smi = "COc1ccc(NC(=O)CSc2nc3ccccc3nc2C)cc1"
u = "s"
recordedvalue = 802

[[record]]
smi = "COc1ccc(-c2noc(CN3C(=O)COc4ccc(Cl)cc43)n2)cc1OC"
u = "s"
recordedvalue = 971

[[record]]
smi = "COc1cccc(-c2nnc(SCc3cc(=O)n4c(C)csc4n3)o2)c1"
u = "s"
recordedvalue = 840

[[record]]
smi = "Cc1ccccc1S(=O)(=O)N1CCC(n2cnnc2C(C)C)CC1"
u = "s"
recordedvalue = 738

[[record]]
smi = "CCn1nc(C)c2ccn(CC(=O)NCc3cc(F)cc(F)c3)c(=O)c21"
u = "s"
recordedvalue = 757

[[record]]
smi = "COc1ccc(NC(=O)CSc2nnc3c4cc(-c5ccc(Cl)cc5)nn4ccn23)c(OC)c1"
u = "s"
recordedvalue = 951

